Numbered stars: 1 amine (or outer) side, 2 acyl side, 3 side chain; on linkers, the order of the positions; unused ones are H or OH. Bridge positions count the residues as written; N and C are the ends. Square brackets hold non-standard residues; d marks the D form. Peptide text beside a SMILES is read from it. * marks the point of attachment. Orn(4R-OH,5R-OCH2CH2NMe3+) = C[N+](C)(C)CCO[C@@H](N[*:3])[C@H](O)C[C@H](N[*:1])C(=O)[*:2]; hTyr(3S-OH,4S-OH) = N[C@H](C(=O)O)[C@H](O)[C@@H](O)c1ccc(O)cc1; X1 = CCCCCOc1cc(F)c(C#Cc2ccc3cc(C(=O)*)ccc3c2)cc1F; X4 = CCCCCOc1c(F)cc(C#Cc2ccc3cc(C(=O)*)ccc3c2)cc1F; Pro(3S-OH,4S-Me) = C[C@H]1CN[C@H](C(=O)O)[C@H]1O; X3 = CCCCCOc1ccc(C#Cc2ccc3cc(C(=O)*)ccc3c2)cc1F; Hyp = O=C(O)[C@@H]1C[C@@H](O)CN1
MIC data for Pichia guilliermondii ATCC 6260 follow.
Output spec: scalar in µg/mL, unitless text.

The cases that follow already have their MIC on record.
Compound	MIC, µg/mL
CCCCCOc1cc(F)c(C#Cc2ccc3cc(C(=O)N[C@H]4C[C@@H](O)[C@@H](OCC[N+](C)(C)C)NC(=O)[C@@H]5[C@@H](O)[C@@H](C)CN5C(=O)[C@H]([C@@H](C)O)NC(=O)[C@H]([C@H](O)[C@@H](O)c5ccc(O)cc5)NC(=O)[C@@H]5C[C@@H](O)CN5C(=O)[C@H]([C@@H](C)O)NC4=O)ccc3c2)cc1F [Example 16] (X1-[Orn(4R-OH,5R-OCH2CH2NMe3+)]T[Hyp][hTyr(3S-OH,4S-OH)]T[Pro(3S-OH,4S-Me)]; lactam 1-C)	0.25
CCCCCOc1c(F)cc(C#Cc2ccc3cc(C(=O)N[C@H]4C[C@@H](O)[C@@H](OCC[N+](C)(C)C)NC(=O)[C@@H]5[C@@H](O)[C@@H](C)CN5C(=O)[C@H]([C@@H](C)O)NC(=O)[C@H]([C@H](O)[C@@H](O)c5ccc(O)cc5)NC(=O)[C@@H]5C[C@@H](O)CN5C(=O)[C@H]([C@@H](C)O)NC4=O)ccc3c2)cc1F [Example 14] (X4-[Orn(4R-OH,5R-OCH2CH2NMe3+)]T[Hyp][hTyr(3S-OH,4S-OH)]T[Pro(3S-OH,4S-Me)]; lactam 1-C)	0.25

Then this compound:
Lookup: API: value(readout=MIC, system=Pichia guilliermondii ATCC 6260) for record CCCCCOc1ccc(C#Cc2ccc3cc(C(=O)N[C@H]4C[C@@H](O)[C@@H](OCC[N+](C)(C)C)NC(=O)[C@@H]5[C@@H](O)[C@@H](C)CN5C(=O)[C@H]([C@@H](C)O)NC(=O)[C@H]([C@H](O)[C@@H](O)c5ccc(O)cc5)NC(=O)[C@@H]5C[C@@H](O)CN5C(=O)[C@H]([C@@H](C)O)NC4=O)ccc3c2)cc1F [Example 10] (X3-[Orn(4R-OH,5R-OCH2CH2NMe3+)]T[Hyp][hTyr(3S-OH,4S-OH)]T[Pro(3S-OH,4S-Me)]; lactam 1-C)
Found: 0.25

###

Test: in vivo
Conditions: SD, rat, iv, 2.5 mg/kg
Numbered stars: 1 amine (or outer) side, 2 acyl side, 3 side chain; on linkers, the order of the positions; unused ones are H or OH. Bridge positions count the residues as written; N and C are the ends. Square brackets hold non-standard residues; d marks the D form. Peptide text beside a SMILES is read from it. * marks the point of attachment. Orn(4R-OH,5R-OCH2CH2NMe3+) = C[N+](C)(C)CCO[C@@H](N[*:3])[C@H](O)C[C@H](N[*:1])C(=O)[*:2]; hTyr(3S-OH,4S-OH) = N[C@H](C(=O)O)[C@H](O)[C@@H](O)c1ccc(O)cc1; X1 = CCCCCOc1cc(F)c(C#Cc2ccc3cc(C(=O)*)ccc3c2)cc1F; Pro(3S-OH,4S-Me) = C[C@H]1CN[C@H](C(=O)O)[C@H]1O; Hyp = O=C(O)[C@@H]1C[C@@H](O)CN1
Measurement kind: AUC(0-inf) (µg·h/mL)
The reply should contain only the number, in µg·h/mL.

Lookup: What value of AUC(0-inf) has been recorded for this entry: CCCCCOc1cc(F)c(C#Cc2ccc3cc(C(=O)N[C@H]4C[C@@H](O)[C@@H](OCC[N+](C)(C)C)NC(=O)[C@@H]5[C@@H](O)[C@@H](C)CN5C(=O)[C@H]([C@@H](C)O)NC(=O)[C@H]([C@H](O)[C@@H](O)c5ccc(O)cc5)NC(=O)[C@@H]5C[C@@H](O)CN5C(=O)[C@H]([C@@H](C)O)NC4=O)ccc3c2)cc1F [Example 16] (X1-[Orn(4R-OH,5R-OCH2CH2NMe3+)]T[Hyp][hTyr(3S-OH,4S-OH)]T[Pro(3S-OH,4S-Me)]; lactam 1-C)
Found: 275

Provenance of the data: patent US20250011365A1
